B1: Double-stranded RNA-binding protein Staufen homolog 1, residues 183 to 249; numbered along this chain, O95793 (parent)
chain: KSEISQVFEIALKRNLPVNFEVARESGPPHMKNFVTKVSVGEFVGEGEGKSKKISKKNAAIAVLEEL

# Variants of: B1
# ASSAY_REMARKS: abundance fitness (aPCA) (normalised: wild type 0, dead -1); higher = more abundant; growth selection in yeast, the domain comes from the species named
# TEST_CONDITIONS: Homo sapiens
abundance fitness values, listed per item

{"VARIANT_DESCRIPTOR": "N19F", "abundance fitness": -0.062}
{"VARIANT_DESCRIPTOR": "E46S", "abundance fitness": -0.051}
{"VARIANT_DESCRIPTOR": "G45V", "abundance fitness": -0.345}
{"VARIANT_DESCRIPTOR": "K37G", "abundance fitness": -0.758}
{"VARIANT_DESCRIPTOR": "L16F", "abundance fitness": -0.424}
{"VARIANT_DESCRIPTOR": "K13L", "abundance fitness": -0.213}
{"VARIANT_DESCRIPTOR": "F8G", "abundance fitness": -0.332}
{"VARIANT_DESCRIPTOR": "N33C", "abundance fitness": -0.163}
{"VARIANT_DESCRIPTOR": "K1G", "abundance fitness": -0.175}
{"VARIANT_DESCRIPTOR": "G27M", "abundance fitness": -0.395}
{"VARIANT_DESCRIPTOR": "E66H", "abundance fitness": -0.002}
